List of Kd tested on UniProtKB Q8NB16.
Write your answer as a measured quantity: the number, then the unit.

In plain terms, Nc1ncc(-c2cnn(C3CCN(C(=O)CC4CCN(C(=O)CCc5ccc6c(c5)C(=O)N(C5CCC(=O)NC5=O)C6=O)CC4)CC3)c2)nc1C(=O)O[C@@H](C(=O)Nc1ccc(F)cc1)c1ccccc1 (stereo partly drawn) has a documented Kd of 2.8 nM

In plain terms, Nc1ncc(-c2cnn(C3CCN(CCOC4CCN(C(=O)COc5ccc6c(c5)C(=O)N(C5CCC(=O)NC5=O)C6=O)CC4)CC3)c2)nc1C(=O)OC(C(=O)Nc1ccc(F)cc1)c1ccccc1 (stereo not drawn) has a documented Kd of 3.9 nM

In plain terms, Nc1ncc(-c2cnn(C3CCN(CC4CCN(C(=O)CNc5cccc6c5C(=O)N(C5CCC(=O)NC5=O)C6=O)CC4)CC3)c2)nc1C(=O)N[C@@H](C(=O)Nc1ccc(F)cc1)c1ccccc1 (stereo partly drawn) has a documented Kd of 240 nM

----------
- experimental target: UniProtKB Q8NB16
- Sequence (Q8NB16 1-471): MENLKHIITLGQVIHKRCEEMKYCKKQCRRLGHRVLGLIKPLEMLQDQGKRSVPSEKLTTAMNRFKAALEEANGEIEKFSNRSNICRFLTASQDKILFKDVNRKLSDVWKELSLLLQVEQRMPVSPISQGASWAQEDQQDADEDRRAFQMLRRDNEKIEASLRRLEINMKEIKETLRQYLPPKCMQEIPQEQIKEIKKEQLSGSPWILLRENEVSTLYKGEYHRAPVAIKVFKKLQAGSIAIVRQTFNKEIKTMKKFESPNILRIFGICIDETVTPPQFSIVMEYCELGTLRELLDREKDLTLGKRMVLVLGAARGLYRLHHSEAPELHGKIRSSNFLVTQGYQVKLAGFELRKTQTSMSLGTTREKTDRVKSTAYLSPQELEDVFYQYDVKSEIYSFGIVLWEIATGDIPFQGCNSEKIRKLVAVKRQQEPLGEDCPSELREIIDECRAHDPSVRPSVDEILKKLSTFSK
Structures can show the parent of a compound that is named as a salt.
recorded metric: Kd (nM)
Number in nM, nothing else.

In plain terms, Cc1ccc([C@@H](OC(=O)c2nc(-c3cnn(C4CCNCC4)c3)cnc2N)C(=O)Nc2ccc(F)cc2)cc1 [TDH-320, hydrochloride] has a documented Kd of 1.7

In plain terms, Nc1ncc(-c2cnn(C3CCN(CCOC4CCN(C(=O)CCc5ccc6c(c5)C(=O)N(C5CCC(=O)NC5=O)C6=O)CC4)CC3)c2)nc1C(=O)O[C@@H](C(=O)Nc1ccc(F)cc1)c1ccccc1 (some centres unmarked) [TDH-379] has a documented Kd of 2.9

In plain terms, Nc1ncc(-c2cnn(C3CCN(C(=O)CC4CCN(c5ccc6c(c5)C(=O)N(C5CCC(=O)NC5=O)C6=O)CC4)CC3)c2)nc1C(=O)O[C@@H](C(=O)Nc1ccc(F)cc1)c1ccccc1 (some centres unmarked) [TDH-344] has a documented Kd of 13

In plain terms, Nc1ncc(-c2cnn(C3CCN(CCOCCOCCOCCNc4cccc5c4C(=O)N(C4CCC(=O)NC4=O)C5=O)CC3)c2)nc1C(=O)O[C@@H](C(=O)Nc1ccc(F)cc1)c1ccccc1 (some centres unmarked) [TDH-153] has a documented Kd of 9.2

In plain terms, Nc1ncc(-c2cn(C3CCN(CC4CCN(c5cccc6c5C(=O)N(C5CCC(=O)NC5=O)C6=O)CC4)CC3)nn2)nc1C(=O)OC(C(=O)Nc1ccc(F)cc1)c1ccccc1 (centres unmarked) [TDH-225] has a documented Kd of 8

In plain terms, Nc1ncc(-c2cnn(C3CCN(CCC4CCN(CC5CCN(C(=O)Cc6cccc(NC7=CC(=O)N(C8CCC(=O)NC8=O)C7=O)c6)CC5)CC4)CC3)c2)nc1C(=O)O[C@@H](C(=O)Nc1ccc(F)cc1)c1ccccc1 (some centres unmarked) [TDH-510] has a documented Kd of 0.47

In plain terms, Nc1ncc(-c2cnn(C3CCN(C4CC5(CCN(CC6CCN(C(=O)C7CN(C8=CC(=O)N(C9CCC(=O)NC9=O)C8=O)C7)CC6)CC5)C4)CC3)c2)nc1C(=O)O[C@@H](C(=O)Nc1ccc(F)cc1)c1ccccc1 (some centres unmarked) [TDH-534] has a documented Kd of 0.24

In plain terms, Nc1ncc(-c2cnn(C3CCN(CCCCCCNC(=O)C4CCN(c5ccc6c(c5)C(=O)N(C5CCC(=O)NC5=O)C6=O)CC4)CC3)c2)nc1C(=O)O[C@@H](C(=O)Nc1ccc(F)cc1)c1ccccc1 (some centres unmarked) [TDH-109] has a documented Kd of 2.8

In plain terms, Nc1ncc(-c2cnn(C3CCN(C(=O)CC4CCN(C(=O)COc5cccc6c5C(=O)N(C5CCC(=O)NC5=O)C6=O)CC4)CC3)c2)nc1C(=O)O[C@@H](C(=O)Nc1ccc(F)cc1)c1ccccc1 (some centres unmarked) [TDH-337] has a documented Kd of 2.5

In plain terms, Nc1ncc(-c2cnn(C3CCN(C(=O)CC4CCN(C(=O)CNc5cccc6nnn(C7CCC(=O)NC7=O)c(=O)c56)CC4)CC3)c2)nc1C(=O)O[C@@H](C(=O)Nc1ccc(F)cc1)c1ccccc1 (some centres unmarked) [TDH-411] has a documented Kd of 5.7

In plain terms, Nc1ncc(-c2cnn(C3CCN(CCCCCCCCCCNC(=O)C4CN(c5ccc6c(c5)C(=O)N(C5CCC(=O)NC5=O)C6=O)C4)CC3)c2)nc1C(=O)O[C@@H](C(=O)Nc1ccc(F)cc1)c1ccccc1 (some centres unmarked) [TDH-159] has a documented Kd of 18

In plain terms, Nc1ncc(-c2cnn(C3CCN(CC4CCN(C(=O)C5CN(c6cccc7c6C(=O)N(C6CCC(=O)NC6=O)C7=O)C5)CC4)CC3)c2)nc1C(=O)O[C@@H](C(=O)Nc1ccc(F)cc1)c1ccccc1 (some centres unmarked) [TDH-138] has a documented Kd of 4.2

In plain terms, COc1ccc(C(=O)N2CCC(CN3CCC(n4cc(-c5cnc(N)c(C(=O)O[C@@H](C(=O)Nc6ccc(F)cc6)c6ccccc6)n5)cn4)CC3)CC2)cc1N1CCC(=O)NC1=O [TDH-445] has a documented Kd of 0.6

In plain terms, Nc1ncc(-c2cnn(C3CCNCC3)c2)nc1C(=O)O[C@@H](C(=O)Nc1cccnc1)c1ccccc1 [TDH-468, hydrochloride] has a documented Kd of 1.7

In plain terms, Nc1ncc(-c2cnn(C3CCN(C(=O)CCC4CCN(C(=O)COc5ccc6nnn(C7CCC(=O)NC7=O)c(=O)c6c5)CC4)CC3)c2)nc1C(=O)O[C@@H](C(=O)Nc1ccc(F)cc1)c1ccccc1 (some centres unmarked) [TDH-437] has a documented Kd of 1.3

In plain terms, Nc1ncc(-c2cnn(C3CCN(CCC4CCN(C(=O)CNc5ccc6c(c5)C(=O)N(C5CCC(=O)NC5=O)C6=O)CC4)CC3)c2)cc1C(=O)OC(C(=O)Nc1ccc(F)cc1)c1ccccc1 (centres unmarked) [TDH-302] has a documented Kd of 8.6

In plain terms, Nc1ncc(-c2cnn(C3CCN(CC4CCN(C(=O)CNc5cccc6c5C(=O)N(C5CCC(=O)NC5=O)C6=O)CC4)CC3)c2)nc1C(=O)O[C@@H](C(=O)Nc1ccc(F)cc1)c1ccccc1 (some centres unmarked) [TDH-136] has a documented Kd of 4.6

In plain terms, COc1ccc(C(=O)N2CCC(OCCN3CCC(CN4CCC(n5cc(-c6cnc(N)c(C(=O)O[C@@H](C(=O)Nc7ccc(F)cc7)c7ccccc7)n6)cn5)CC4)CC3)CC2)cc1N1CCC(=O)NC1=O [TDH-506] has a documented Kd of 0.6

In plain terms, Nc1ncc(-c2cnn(C3CCN(CC4CCN(CC(=O)NC5CCN(c6ccc7c(c6)C(=O)N(C6CCC(=O)NC6=O)C7=O)CC5)CC4)CC3)c2)nc1C(=O)OC(C(=O)Nc1ccc(F)cc1)c1ccccc1 (centres unmarked) [TDH-272] has a documented Kd of 13

In plain terms, Nc1ncc(-c2cnn(C3CCN(C4CC5(CCN(CC6CCN(C(=O)COc7ccc8c(c7)C(=O)N(C7CCC(=O)NC7=O)C8=O)CC6)CC5)C4)CC3)c2)nc1C(=O)O[C@@H](C(=O)Nc1ccc(F)cc1)c1ccccc1 (some centres unmarked) [TDH-442] has a documented Kd of 0.53
